Origin of values: patent US6759384

molecular target: human factor Xa (Enzyme Research Laboratories, Inc.) (human, UniProt P00742 41-179; P00742 235-488, limits assumed); experiment: chromogenic FXa inhibition
Sequence (P00742 41-179 limits assumed, chain 1 of 2): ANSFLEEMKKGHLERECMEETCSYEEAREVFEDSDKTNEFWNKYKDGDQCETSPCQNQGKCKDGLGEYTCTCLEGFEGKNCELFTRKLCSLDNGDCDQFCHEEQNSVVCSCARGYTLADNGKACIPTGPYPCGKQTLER
Sequence (P00742 235-488 limits assumed, chain 2 of 2): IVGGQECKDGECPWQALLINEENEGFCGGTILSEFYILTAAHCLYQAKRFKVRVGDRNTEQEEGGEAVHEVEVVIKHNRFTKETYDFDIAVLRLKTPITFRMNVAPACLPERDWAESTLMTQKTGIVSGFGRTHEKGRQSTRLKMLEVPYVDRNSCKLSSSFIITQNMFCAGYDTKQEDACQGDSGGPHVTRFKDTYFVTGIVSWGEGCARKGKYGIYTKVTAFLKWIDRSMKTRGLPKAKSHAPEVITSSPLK
pKi: −log10 of the molar value. Non-standard residues stand in square brackets, D forms with d. No end group written: not given here. *: point of attachment. pal = not defined here; tBu = CC(C)(C)*
OBSERVABLE: pKi

>  <BINDER>
TFGYIRKA-NH2 [T-F-G-Y-I-R-K-A-NH2]

>  <pKi>
> 4.00

$$$$
>  <BINDER>
{CH3CH2‑O‑CO}-YIRLP-NH2 [CH3CH2-O-CO-Y-I-R-L-P-NH2]

>  <pKi>
> 4.00

$$$$

Now for a further binder.
(Q) Would you mind telling me what pKi value was observed for [pal]C(tBu)RLP-NH2 (reading uncertain; also: pyridylalanine ring position not given here, printed as pal-C(SBut)-R—L—P—NH2) [pal-C(SBut)-R-L-P-NH2] ?
(A) > 4.00
